# Test system: Kochia scoparia (KCHSC)
# Assay: E. Herbicidal post-emergence efficacy, KCHSC
# Type: in vivo
# Condition context: application rate 80 g/ha
Readout: Post-emergence efficacy against KCHSC in % (%)
Write the number in % without appending the unit.

Solved cases below.
N#Cc1cccc(Oc2ncc(Cl)cn2)c1OS(=O)(=O)CCC(F)(F)F [Example I-82]    90
O=S(=O)(CCCC(F)(F)F)Oc1c(F)cccc1Oc1ncc(F)cn1 [Example I-42]    90
N#Cc1cccc(Oc2ncc(Cl)cn2)c1OS(=O)(=O)CCCC(F)(F)F [Example I-81]    100
O=S(=O)(CCC(F)(F)F)Oc1c(Br)cccc1Oc1ncc(F)cn1 [Example I-43]    90

Q. Test system Kochia scoparia (KCHSC); read-out Post-emergence efficacy against KCHSC in %; what value for O=S(=O)(CCCC(F)(F)F)Oc1c(F)cccc1Oc1ncc(Br)cn1 [Example I-41] ?
A. 100

Q. Test system Kochia scoparia (KCHSC); read-out Post-emergence efficacy against KCHSC in %; what value for O=S(=O)(CCC(F)(F)F)Oc1c(Cl)cccc1Oc1ncc(Br)cn1 [Example I-32] ?
A. 90
